# systemUnderTest: UniProtKB Q09472
# Sequence (Q09472 whole entry, the tested form may be a part): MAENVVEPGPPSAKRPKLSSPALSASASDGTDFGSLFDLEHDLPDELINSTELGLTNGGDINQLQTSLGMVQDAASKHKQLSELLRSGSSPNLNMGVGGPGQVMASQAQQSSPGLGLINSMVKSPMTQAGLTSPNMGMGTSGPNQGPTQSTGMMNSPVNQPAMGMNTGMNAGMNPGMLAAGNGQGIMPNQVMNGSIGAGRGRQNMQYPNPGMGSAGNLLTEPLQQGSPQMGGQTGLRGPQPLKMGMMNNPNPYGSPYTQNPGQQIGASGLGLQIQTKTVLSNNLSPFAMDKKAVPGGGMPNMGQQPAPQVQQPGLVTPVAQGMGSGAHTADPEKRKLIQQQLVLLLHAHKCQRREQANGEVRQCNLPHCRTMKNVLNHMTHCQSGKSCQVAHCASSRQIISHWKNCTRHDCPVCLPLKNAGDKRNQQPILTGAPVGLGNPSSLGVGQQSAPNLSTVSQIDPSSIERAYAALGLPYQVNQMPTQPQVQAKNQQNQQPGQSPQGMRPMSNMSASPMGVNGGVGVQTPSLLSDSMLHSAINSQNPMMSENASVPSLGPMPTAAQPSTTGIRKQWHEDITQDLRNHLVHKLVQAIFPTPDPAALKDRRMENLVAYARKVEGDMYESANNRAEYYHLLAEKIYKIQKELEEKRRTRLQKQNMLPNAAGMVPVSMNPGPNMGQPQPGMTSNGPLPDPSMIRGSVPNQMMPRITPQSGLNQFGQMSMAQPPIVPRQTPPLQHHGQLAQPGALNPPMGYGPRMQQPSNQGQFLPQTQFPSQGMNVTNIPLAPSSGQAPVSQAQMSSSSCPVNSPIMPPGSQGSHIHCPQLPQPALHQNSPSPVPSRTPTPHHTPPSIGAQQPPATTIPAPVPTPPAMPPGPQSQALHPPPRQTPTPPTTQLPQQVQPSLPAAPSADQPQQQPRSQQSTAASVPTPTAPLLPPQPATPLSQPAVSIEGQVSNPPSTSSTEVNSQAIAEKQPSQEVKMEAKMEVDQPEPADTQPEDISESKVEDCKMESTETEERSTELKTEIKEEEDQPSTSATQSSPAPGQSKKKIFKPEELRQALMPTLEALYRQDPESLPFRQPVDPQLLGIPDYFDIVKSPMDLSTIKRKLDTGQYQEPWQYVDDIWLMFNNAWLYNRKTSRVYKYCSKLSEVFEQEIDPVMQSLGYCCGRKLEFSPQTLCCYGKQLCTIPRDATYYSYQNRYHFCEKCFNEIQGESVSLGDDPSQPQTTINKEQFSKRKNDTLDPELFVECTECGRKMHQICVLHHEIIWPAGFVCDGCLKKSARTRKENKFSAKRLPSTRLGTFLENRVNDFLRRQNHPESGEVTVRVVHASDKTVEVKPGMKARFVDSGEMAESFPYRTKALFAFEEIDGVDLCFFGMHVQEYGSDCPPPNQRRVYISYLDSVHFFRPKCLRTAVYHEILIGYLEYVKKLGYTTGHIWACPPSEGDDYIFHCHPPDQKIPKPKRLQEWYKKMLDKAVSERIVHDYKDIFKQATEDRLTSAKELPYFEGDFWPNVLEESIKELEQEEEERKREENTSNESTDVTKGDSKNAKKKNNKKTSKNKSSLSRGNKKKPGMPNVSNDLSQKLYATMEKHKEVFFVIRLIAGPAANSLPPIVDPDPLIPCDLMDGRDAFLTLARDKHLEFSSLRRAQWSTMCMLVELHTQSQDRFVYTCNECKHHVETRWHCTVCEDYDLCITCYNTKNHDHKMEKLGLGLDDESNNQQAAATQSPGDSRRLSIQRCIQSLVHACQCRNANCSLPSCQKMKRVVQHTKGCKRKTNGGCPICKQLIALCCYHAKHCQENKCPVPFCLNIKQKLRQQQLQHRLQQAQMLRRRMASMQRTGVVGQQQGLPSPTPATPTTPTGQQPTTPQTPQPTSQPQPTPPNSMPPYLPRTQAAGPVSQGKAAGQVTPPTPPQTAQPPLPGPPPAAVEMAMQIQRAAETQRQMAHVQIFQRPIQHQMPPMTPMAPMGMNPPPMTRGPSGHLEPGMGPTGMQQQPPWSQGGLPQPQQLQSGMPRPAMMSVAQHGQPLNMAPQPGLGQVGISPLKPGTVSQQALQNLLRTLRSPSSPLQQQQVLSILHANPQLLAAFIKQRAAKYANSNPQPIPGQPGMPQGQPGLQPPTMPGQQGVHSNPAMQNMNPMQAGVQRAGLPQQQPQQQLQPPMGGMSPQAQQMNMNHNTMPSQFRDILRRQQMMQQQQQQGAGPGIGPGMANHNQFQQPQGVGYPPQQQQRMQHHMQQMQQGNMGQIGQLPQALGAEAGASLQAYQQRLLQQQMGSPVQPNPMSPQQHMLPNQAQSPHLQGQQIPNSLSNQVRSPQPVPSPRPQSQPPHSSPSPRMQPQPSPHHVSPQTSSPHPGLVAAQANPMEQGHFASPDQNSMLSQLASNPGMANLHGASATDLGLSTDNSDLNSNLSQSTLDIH
# experiment: Inhibition of recombinant human p300 catalytic domain (1284 to 1673 aa) using histone H3 at 100 uM after 1 hr by radiochemical assay in presence of [acetyl-3H]-acetyl coenzyme A
Quick rule for you: inhibition at 20% or higher means T, lower means F.

>>> qualitativelabel("CC(C)=NNc1nc(-c2cc3ccccc3oc2=O)cs1")
"T"
>>> qualitativelabel("CCOC(=O)c1csc(NN=C2CCCC2)n1")
"F"
>>> qualitativelabel("CCC(CC)=NNc1nc(-c2ccc(Cl)cc2)cs1")
"T"
>>> qualitativelabel("Cc1sc(NN=C2CCCC2)nc1-c1ccccc1")
"F"
>>> qualitativelabel("COc1ccc(-c2csc(N/N=C3\\CCC[C@@H](C)C3)n2)cc1")
"T"
>>> qualitativelabel("Clc1ccc(-c2csc(N/N=C\\c3cccnc3)n2)cc1")
"T"
>>> qualitativelabel("CC1CC/C(=N/Nc2nc(-c3ccccc3)cc(=O)[nH]2)C1 (configuration not stated)")
"F"
>>> qualitativelabel("CC(C)=NNc1nc(-c2ccccc2)cc(=O)[nH]1")
"F"
>>> qualitativelabel("CC(C)=NNc1nc(-c2ccccc2)cs1")
"F"
>>> qualitativelabel("c1ccc2cc(-c3csc(NN=C4CCCC4)n3)ccc2c1")
"F"
>>> qualitativelabel("C/C(=N/Nc1nc(-c2ccc(Cl)cc2)cs1)c1ccco1")
"T"
>>> qualitativelabel("Clc1ccc(-c2csc(NN=C3CCCC3)n2)c(Cl)c1")
"T"

###

# systemUnderTest: Histone acetyltransferase KAT2B (Homo sapiens) (UniProt Q92831)
# Sequence (Q92831 whole entry, looked up, the tested form may be a part): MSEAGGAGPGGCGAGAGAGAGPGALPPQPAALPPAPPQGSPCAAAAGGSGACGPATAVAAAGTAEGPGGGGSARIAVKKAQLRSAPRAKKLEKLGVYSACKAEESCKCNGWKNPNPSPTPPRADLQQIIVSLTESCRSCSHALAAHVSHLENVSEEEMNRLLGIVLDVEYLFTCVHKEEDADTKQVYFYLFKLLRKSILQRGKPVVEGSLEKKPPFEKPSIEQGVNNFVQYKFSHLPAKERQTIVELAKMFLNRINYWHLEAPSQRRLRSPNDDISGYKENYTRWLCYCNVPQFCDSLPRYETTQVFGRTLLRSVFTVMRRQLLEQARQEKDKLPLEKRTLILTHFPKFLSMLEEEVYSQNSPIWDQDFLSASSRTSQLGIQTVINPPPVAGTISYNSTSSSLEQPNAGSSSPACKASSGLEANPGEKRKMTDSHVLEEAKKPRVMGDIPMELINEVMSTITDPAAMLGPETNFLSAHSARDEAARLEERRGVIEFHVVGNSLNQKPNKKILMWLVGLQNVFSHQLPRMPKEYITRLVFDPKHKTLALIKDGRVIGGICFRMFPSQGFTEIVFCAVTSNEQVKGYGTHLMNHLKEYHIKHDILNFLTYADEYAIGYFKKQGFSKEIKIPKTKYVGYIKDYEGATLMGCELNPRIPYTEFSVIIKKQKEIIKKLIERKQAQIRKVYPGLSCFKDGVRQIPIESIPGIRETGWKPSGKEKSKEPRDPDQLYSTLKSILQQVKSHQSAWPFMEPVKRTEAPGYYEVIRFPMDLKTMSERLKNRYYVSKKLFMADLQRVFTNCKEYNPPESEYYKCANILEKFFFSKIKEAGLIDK
# experiment: Inhibition of recombinant human PCAF catalytic domain (492 to 658 aa) using histone H3 at 100 uM after 1 hr by radiochemical assay in presence of [acetyl-3H]-acetyl coenzyme A
Quick rule for you: inhibition at 2% or higher means True, lower means False.

>>> qualitativelabel("Clc1ccc(-c2csc(NN=C3CCCCCC3)n2)cc1")
"False"
>>> qualitativelabel("C/C(=N/Nc1nc(-c2ccc(Cl)cc2)cs1)c1ccc2ccccc2c1")
"True"
>>> qualitativelabel("C[C@@H]1CCC/C(=N/Nc2nc(-c3ccc(Cl)cc3)cs2)C1")
"False"
>>> qualitativelabel("COc1cccc(-c2csc(NN=C3CCCC3)n2)c1")
"True"
>>> qualitativelabel("CC(C)=NNc1nc(-c2ccc(-c3ccccc3)cc2)cs1")
"False"
>>> qualitativelabel("CCOC(=O)c1csc(NN=C2CCCC2)n1")
"True"
>>> qualitativelabel("COc1ccc(-c2csc(N/N=C3/CCC(C)C3)n2)cc1 (configuration not stated)")
"True"
>>> qualitativelabel("COc1ccc(-c2csc(NN=C3CCCCCC3)n2)cc1")
"False"
>>> qualitativelabel("CCC/C(C)=N/Nc1nc(-c2ccc(Cl)cc2)cs1")
"True"
>>> qualitativelabel("Clc1ccc(-c2csc(NN=C3CCCCCCC3)n2)cc1")
"True"
>>> qualitativelabel("CC1CCC/C(=N/Nc2nc(-c3ccc(Cl)cc3)cs2)C1 (configuration not stated)")
"False"

###

# systemUnderTest: UniProt Q09472
# experiment: Inhibition of recombinant human p300 catalytic domain (1284 to 1673 aa) using histone H3 at 400 uM after 1 hr by radiochemical assay in presence of [acetyl-3H]-acetyl coenzyme A
Label scheme, based on inhibition: low: < 60%; medium: ≥ 60% and < 70%; high: ≥ 70%

>>> qualitativelabel("O=c1cc(-c2ccc(Cl)cc2)nc(NN=C2CCCC2)[nH]1")
"low"
>>> qualitativelabel("C/C(=N/Nc1nc(-c2ccc(Cl)cc2)cs1)c1cc2ccccc2oc1=O")
"high"
>>> qualitativelabel("C/C(=N/Nc1nc(-c2ccc(Cl)cc2)cs1)c1ccccn1")
"high"
>>> qualitativelabel("C/C(=N/Nc1nc(-c2ccc(Cl)cc2)cs1)c1nccs1")
"medium"
>>> qualitativelabel("Fc1ccc(-c2csc(NN=C3CCCC3)n2)cc1")
"high"
>>> qualitativelabel("CC(C)=NNc1nc(-c2cc3ccccc3oc2=O)cs1")
"low"
>>> qualitativelabel("c1ccc(-c2csc(NN=C3CCCC3)n2)cc1")
"low"
>>> qualitativelabel("CC(C)=NNc1nc(-c2cccc([N+](=O)[O-])c2)cs1")
"high"
>>> qualitativelabel("Clc1ccc(-c2csc(N/N=C\\c3c[nH]c4ccccc34)n2)cc1")
"high"
>>> qualitativelabel("COc1ccc(-c2csc(NN=C3CCCC3)n2)cc1")
"low"
>>> qualitativelabel("CC(C)=NNc1nc(-c2ccc(Br)cc2)cs1")
"medium"
>>> qualitativelabel("CC1CC/C(=N/Nc2nc(-c3ccc(Cl)cc3)cc(=O)[nH]2)C1 (configuration not stated)")
"medium"
>>> qualitativelabel("COc1cccc(-c2csc(NN=C3CCCC3)n2)c1")
"medium"

###

Entries and their inhibition values follow.
# systemUnderTest: Histone acetyltransferase p300 (Homo sapiens)
# experiment: Inhibition of recombinant human p300 catalytic domain (1284 to 1673 aa) using histone H3 at 200 uM after 1 hr by radiochemical assay in presence of [acetyl-3H]-acetyl coenzyme A
measuredMetric: inhibition (%)

>>> endpointvalue("CC(C)=NNc1nc(-c2ccc(Cl)cc2)cs1")
45
>>> endpointvalue("Clc1ccc(-c2csc(NN=C3CCCC3)n2)cc1")
47
>>> endpointvalue("CC1CC/C(=N/Nc2nc(-c3ccc(Cl)cc3)cc(=O)[nH]2)C1 (stereo unspecified)")
55
>>> endpointvalue("O=c1cc(-c2ccc(Cl)cc2)nc(NN=C2CCCC2)[nH]1")
46
>>> endpointvalue("CC(C)=NNc1nc(-c2cccc([N+](=O)[O-])c2)cs1")
54
>>> endpointvalue("CC(C)=NNc1nc(-c2cc3ccccc3oc2=O)cs1")
46
>>> endpointvalue("Fc1ccc(-c2csc(NN=C3CCCC3)n2)cc1")
62
>>> endpointvalue("CC(C)=NNc1nc(-c2ccc(Br)cc2)cs1")
53
>>> endpointvalue("c1ccc(-c2csc(NN=C3CCCC3)n2)cc1")
56
>>> endpointvalue("COc1cccc(-c2csc(NN=C3CCCC3)n2)c1")
51
>>> endpointvalue("O=[N+]([O-])c1cccc(-c2csc(NN=C3CCCC3)n2)c1")
51

###

# systemUnderTest: UniProt Q09472
# experiment: Inhibition of recombinant human p300 catalytic domain (1284 to 1673 aa) using histone H3 at 100 uM after 1 hr by radiochemical assay in presence of [acetyl-3H]-acetyl coenzyme A
Entries and their inhibition values follow.
measuredMetric: inhibition

>>> endpointvalue("Cc1csc(NN=C2CCCC2)n1")
"0%"
>>> endpointvalue("CC(C)=NNc1nc(-c2ccc(Br)cc2)cs1")
"42%"
>>> endpointvalue("O=[N+]([O-])c1cccc(-c2csc(NN=C3CCCC3)n2)c1")
"44%"
>>> endpointvalue("CCOC(=O)c1csc(NN=C(C)C)n1")
"22%"
>>> endpointvalue("CC(C)=NNc1nc(C)cs1")
"13%"
>>> endpointvalue("C/C(=N/Nc1nc(-c2ccc(Cl)cc2)cs1)c1ccncc1")
"36%"
>>> endpointvalue("COc1cccc(-c2csc(NN=C(C)C)n2)c1")
"30%"
>>> endpointvalue("Clc1ccc(-c2csc(N/N=C\\c3cccs3)n2)cc1")
"13%"
>>> endpointvalue("Clc1ccc(-c2csc(NN=C3CCCCCCC3)n2)cc1")
"15%"
>>> endpointvalue("Nc1nc(-c2ccc(Cl)cc2)cs1")
"31%"
>>> endpointvalue("CC(C)=NNc1nc(-c2ccc(Cl)cc2Cl)cs1")
"30%"
>>> endpointvalue("CCC(C)/C(C)=N/Nc1nc(-c2ccc(Cl)cc2)cs1 (stereo unspecified)")
"2%"
>>> endpointvalue("O=c1cc(-c2ccccc2)nc(NN=C2CCCC2)[nH]1")
"3%"
>>> endpointvalue("CC(C)=NNc1nc(-c2ccccc2)c(C)s1")
"20%"
>>> endpointvalue("Fc1ccc(-c2csc(NN=C3CCCC3)n2)cc1")
"35%"
>>> endpointvalue("CC1CC/C(=N/Nc2nc(-c3ccc(F)cc3F)cs2)C1 (stereo unspecified)")
"14%"

###

Entries and their inhibition values follow.
# systemUnderTest: Histone acetyltransferase KAT2B (Homo sapiens)
# experiment: Inhibition of recombinant human PCAF catalytic domain (492 to 658 aa) using histone H3 at 100 uM after 1 hr by radiochemical assay in presence of [acetyl-3H]-acetyl coenzyme A
measuredMetric: inhibition (%)

>>> endpointvalue("C/C(=N/Nc1nc(-c2ccc(Cl)cc2)cs1)C1CCCCC1")
8
>>> endpointvalue("CCCCCC/C(C)=N/Nc1nc(-c2ccc(Cl)cc2)cs1")
10
>>> endpointvalue("CC1(C)C=C/C(=N\\Nc2nc(-c3ccc(Cl)cc3)cs2)CC1")
0
>>> endpointvalue("Nc1nc(-c2ccccc2)cs1")
3
>>> endpointvalue("CCCC/C(C)=N/Nc1nc(-c2ccc(Cl)cc2)cs1")
8
>>> endpointvalue("O=c1cc(-c2ccc(Cl)cc2)nc(NN=C2CCCC2)[nH]1")
10
>>> endpointvalue("C/C(=N/Nc1nc(-c2ccc(Cl)cc2)cs1)c1cccs1")
5
>>> endpointvalue("Clc1ccc(-c2csc(N/N=C\\c3c[nH]c4ccccc34)n2)cc1")
0
>>> endpointvalue("c1ccc(-c2csc(NN=C3CCCC3)n2)cc1")
15
